// data source = ChEMBL document CHEMBL1144872

pIC50: −log10 of the molar value.
The following molecules have recorded pIC50 on bone resorption (Rattus norvegicus).
observable: pIC50

INSERT INTO results (molecule_smiles, quantitative_result) VALUES
  ('Cn1ccnc1NC(P(=O)(O)O)P(=O)(O)O', 7.73),
  ('O=P(O)(O)C(O)(CCNCCCOc1ccccc1)P(=O)(O)O', 8.49),
  ('CN(CCCc1ccc(Cl)cc1)CCC(O)(P(=O)(O)O)P(=O)(O)O', 8.78),
  ('O=C(c1ccccc1)n1ccnc1CC(O)(P(=O)(O)O)P(=O)(O)O', 7.19),
  ('CCCN(CCCOc1ccccc1)CCC(O)(P(=O)(O)O)P(=O)(O)O', 7.62),
  ('CN(CCCCCCc1ccccc1)CCC(O)(P(=O)(O)O)P(=O)(O)O', 5.44);

* * *

biological target: bone resorption (Rattus norvegicus)
observable: IC50

INSERT INTO assay_data (molecule_smiles, result) VALUES
  ('O=P(O)(O)C(O)(Cn1cncn1)P(=O)(O)O', '2200 nM'),
  ('Cc1csc(NC(P(=O)(O)O)P(=O)(O)O)n1', '347 nM'),
  ('Cn1ccnc1CC(O)(P(=O)(O)O)P(=O)(O)O', '1.97 nM'),
  ('CN(CCCSc1ccc(Cl)cc1)CCC(O)(P(=O)(O)O)P(=O)(O)O', '18 nM'),
  ('O=P(O)(O)C(Nc1nccn1Cc1ccccc1)P(=O)(O)O', '185 nM'),
  ('Cc1cccc(OCCCN(C)CCC(O)(P(=O)(O)O)P(=O)(O)O)c1', '4.27 nM'),
  ('CCc1cnc(NC(P(=O)(O)O)P(=O)(O)O)s1', '4.82 nM'),
  ('O=P(O)(O)C(O)(CCNCCCSc1ccccc1)P(=O)(O)O', '18.2 nM'),
  ('CN(CCCOc1ccc(Cl)cc1)CCC(O)(P(=O)(O)O)P(=O)(O)O', '3.12 nM'),
  ('CN(CCCCOc1ccccc1)CCC(O)(P(=O)(O)O)P(=O)(O)O', '10.1 nM'),
  ('CN(CCCOc1ccc(F)cc1)CCC(O)(P(=O)(O)O)P(=O)(O)O', '1.45 nM'),
  ('O=P(O)(O)C(O)(Cc1ncc[nH]1)P(=O)(O)O', '17.8 nM'),
  ('CN(CCCc1ccccc1)CCC(O)(P(=O)(O)O)P(=O)(O)O', '2.59 nM');

* * *

Quick list: IC50 per entry.
molecular target: bone resorption (Rattus norvegicus)
observable: IC50 (nM)

INSERT INTO results (molecule_smiles, quantitative_result) VALUES
  ('CCCc1cnc(NC(P(=O)(O)O)P(=O)(O)O)s1', 6.15),
  ('CCN(CCCOc1ccccc1)CCC(O)(P(=O)(O)O)P(=O)(O)O', 72.1),
  ('O=P(O)(O)C(O)(CCNCCCc1ccccc1)P(=O)(O)O', 55.8),
  ('CN(CCc1ccccc1)CCC(O)(P(=O)(O)O)P(=O)(O)O', 3.92),
  ('O=P(O)(O)C(Nc1ncc[nH]1)P(=O)(O)O', 1950),
  ('O=P(O)(O)C(O)(CCc1cnc[nH]1)P(=O)(O)O', 66.7),
  ('CN(CCCCCCOc1ccccc1)CCC(O)(P(=O)(O)O)P(=O)(O)O', 17600),
  ('COc1ccc(OCCCN(C)CCC(O)(P(=O)(O)O)P(=O)(O)O)cc1', 2.82),
  ('O=P(O)(O)C(Cc1nccs1)P(=O)(O)O', 733),
  ('CCCCc1cnc(NC(P(=O)(O)O)P(=O)(O)O)s1', 2.69),
  ('O=P(O)(O)C(O)(CCNCCCCc1ccccc1)P(=O)(O)O', 2.69),
  ('Cc1cnc(NC(P(=O)(O)O)P(=O)(O)O)s1', 5.13),
  ('CN(CCCOc1ccccc1)CCCC(O)(P(=O)(O)O)P(=O)(O)O', 246),
  ('O=P(O)(O)C(Nc1ncc(CCc2ccccc2)s1)P(=O)(O)O', 7.08),
  ('CCCCN(CCCOc1ccccc1)CCC(O)(P(=O)(O)O)P(=O)(O)O', 1170),
  ('CN(CCCSc1ccccc1)CCC(O)(P(=O)(O)O)P(=O)(O)O', 0.618),
  ('O=P(O)(O)C(O)(CCNCCc1ccccc1)P(=O)(O)O', 885),
  ('O=P(O)(O)C(Nc1nccs1)P(=O)(O)O', 18.2),
  ('CN(CCOc1ccc(Cl)cc1)CCC(O)(P(=O)(O)O)P(=O)(O)O', 4.07),
  ('Cc1nc[nH]c1CC(O)(P(=O)(O)O)P(=O)(O)O', 5.13),
  ('CN(CCCOc1ccccc1)CCC(O)(P(=O)(O)O)P(=O)(O)O', 1.29),
  ('CC(C)c1cnc(NC(P(=O)(O)O)P(=O)(O)O)s1', 632),
  ('O=P(O)(O)C(O)(CCn1ccnc1)P(=O)(O)O', 157),
  ('Cc1ncn(CC(O)(P(=O)(O)O)P(=O)(O)O)c1C', 5);
